# Assayed System: Beta-2 adrenergic receptor (Homo sapiens)
# Assay: Adrenergic beta2 receptor (ADRB2) small molecule antagonists, cell-based qHTS assay (AID 1963592); further: on the % scale 0 is the no-effect control and ±100 the full control effect; nearly all actives have a fitted effect of over 50% in size
# Test Settings: CHO-ADRB2 cells, isoproterenol-stimulated cAMP HTRF ratio, 0.5 h; series mostly up to 92.4 µM
Inconclusive results are not listed. Active and inactive are the calls of the source. The call rests on the fitted dose curve.
Reported Property: activity change, negative = inhibition

Here's what some known entries look like.
Smiles Str: CCn1nc(Cc2ccccc2)cc1C1CCN(C[C@H]2C[C@H](N(C)[C@@H](C(=O)O)C(C)C)C[C@@H]2c2cccc(F)c2)CC1
Reported Property: activity change, negative = inhibition
Measured Value: inactive
--
Smiles Str: C=CC(=C)CC/C=C(\C)CCC=C(C)C
Reported Property: activity change, negative = inhibition
Measured Value: 10.9% [at 19 µM] (inactive)
--
Smiles Str: O=C(O)c1ccc[n+]([O-])c1
Reported Property: activity change, negative = inhibition
Measured Value: inactive
--
Smiles Str: CC(C)=NNC(N)=S
Reported Property: activity change, negative = inhibition
Measured Value: inactive

Please examine the following record next.
I have this compound here, C[C@]1(Cn2ccnn2)[C@H](C(=O)O)N2C(=O)C[C@H]2S1(=O)=O , and I need its recorded activity change, negative = inhibition.
inactive

---

# Assay: Nuclear factor erythroid 2-related factor 2/antioxidant responsive element (Nrf2/ARE) small molecule agonists: qHTS cell viability counter screen in human keratinocytes (AID 1919968); further: nearly all actives have a fitted effect of over 55% in size
# Test Settings: KeratinoSens HaCaT ARE cells viability, CellTiter-Fluor, 24 h; series mostly up to 92.4 µM
Records with an inconclusive call do not appear. Activity calls are given as the source filed them. Calls come from the whole dose curve; as a rule, active = well fitted cell-killing curve with a large enough effect in the repeat runs; inconclusive = weak or mixed curves, or effect the other way; inactive = flat fitted curve, though single readings scatter.
Give one outcome, nothing more. List: label 1 (active), label 0 (inactive)

As a guide, the following entries are already answered.
Compound: CS(=O)(=O)c1ccc(-c2cn3ccccc3n2)cc1
Class Label: label 0

Compound: COC(=O)[C@@H]1[C@H]2C[C@H]3c4[nH]c5ccccc5c4CCN3C[C@@H]2CC[C@@H]1O
Class Label: label 0

Record request — test call for CCC(=O)O[C@]1(C(=O)SCF)[C@H](C)C[C@H]2[C@@H]3C[C@H](F)C4=CC(=O)C=C[C@]4(C)[C@@]3(F)[C@@H](O)C[C@@]21C
label 0

Query: recorded result category for C[N+]1(C)CCCC(OC(=O)C(O)(c2ccccc2)c2ccccc2)C1 (stereo not given) in this test
label 0

Hi, do you know how CCCCCCC/C=C/C=O came out in this test?
label 0

Hi, sorry to bother you, what did the test record for C=COCC1CCC(COC=C)CC1 (stereo not given) ?
label 0

Hi team, can someone confirm the assay call for CCCCCCC(=O)OCC ?
label 0

Per the records of this test, what outcome belongs to CN1CCN(C2=Nc3ccccc3Sc3ccc(Cl)cc32)CC1 ?
label 0

What did this assay record as the result for C=COCCCCO ?
label 0

Recorded test call requested for CC1(C)S[C@@H]2[C@H](NC(=O)Cc3ccccc3)C(=O)N2[C@H]1C(=O)O (tested in a mixture with another compound)
label 0

Per the records of this test, what outcome belongs to C=C(C)C(=O)OCCN(C)C ?
label 0

Field: outcome | Entry: CCC1(C)C(=O)N(Cl)C(=O)N1Cl (stereo not given)
label 0

---

# Assay: Nuclear factor erythroid 2-related factor 2/antioxidant responsive element (Nrf2/ARE) small molecule agonists: qHTS cell viability counter screen in human keratinocytes (AID 1919968); further: nearly all actives have a fitted effect of over 55% in size
# Test Settings: KeratinoSens HaCaT ARE cells viability, CellTiter-Fluor, 24 h; series mostly up to 92.4 µM
Inconclusive results are not listed. Calls of active or inactive are those of the source. Calls come from the whole dose curve; as a rule, active = well fitted cell-killing curve with a large enough effect in the repeat runs; inconclusive = weak or mixed curves, or effect the other way; inactive = flat fitted curve, though single readings scatter.
Parameter call: string, one of active, inactive

Use the examples below as a reference point.
Compound: OC(CCN1CCCC1)(c1ccccc1)C1CCCCC1 (stereo not drawn)
Class Label: inactive

Compound: COc1cc(-c2nc(NC(=O)c3cc4cc(C)cc(C)c4n3CC(=O)O)sc2CCC2CCCCC2)c(OC)cc1Cl
Class Label: active

Compound: Cc1ccc(Cl)c(OCC(O)CNC(C)(C)C)c1 (stereo not drawn)
Class Label: inactive

Compound: CC(C)C[C@H](NC(=O)OCC1c2ccccc2-c2ccccc21)C(=O)O
Class Label: inactive

Compound: CCCCOc1cc(C(=O)NCCN(CC)CC)c2ccccc2n1
Class Label: inactive

Compound: C=CC(=O)OCC[N+](C)(C)C
Class Label: inactive

Compound: CC(C)C(=O)OCc1ccccc1
Class Label: inactive

Compound: Cc1c(N)cccc1[N+](=O)[O-]
Class Label: inactive

Compound: CN(CCOc1ccc(NS(C)(=O)=O)cc1)CCc1ccc(NS(C)(=O)=O)cc1
Class Label: inactive

Compound: CCC(C)c1nccnc1OC (stereo not drawn)
Class Label: inactive

What did the test return for O=C(Nc1cccc2c(=O)cc(-c3nn[nH]n3)oc12)c1ccc(OCCCCc2ccccc2)cc1 ?
inactive

How did this test come out for O=CCCc1ccccc1 ?
inactive

What is the recorded call for this compound in the test? C=C[Si](C)(C)O[Si](C)(C)C=C
inactive

Dear all, I need the recorded test outcome for CN1C(=O)N(c2ccccc2Br)Cc2cnc(Nc3ccc4c(c3)OCC(CO)O4)nc21 (stereo not drawn) , thank you.
active

// outcome(item) with item = CCCCCC[C@@H](CCC)C(=O)O
inactive

---

# Assay: Nuclear factor erythroid 2-related factor 2/antioxidant responsive element (Nrf2/ARE) small molecule agonists: qHTS cell viability counter screen in human keratinocytes (AID 1919968); further: nearly all actives have a fitted effect of over 55% in size
# Test Settings: KeratinoSens HaCaT ARE cells viability, CellTiter-Fluor, 24 h; series mostly up to 92.4 µM
# From the text: U.S. Tox21 Program National Center for Advancing Translational Sciences [NCATS] Division of Preclinical Innovation [DPI] U.S. Environmental Protection Agency [EPA] National Institutes of Environmental Health Sciences [NIEHS] National Toxicology Program [NTP] U.S. Food and Drug Administration [FDA] […] The activation of the report gene under culture conditions can be detected by ONE-Glo Luciferase Assay System (Promega, Madison, WI). […]
Records with an inconclusive call do not appear. Activity calls are given as the source filed them. Calls come from the whole dose curve; as a rule, active = well fitted cell-killing curve with a large enough effect in the repeat runs; inconclusive = weak or mixed curves, or effect the other way; inactive = flat fitted curve, though single readings scatter.
Outcome field: choose from 1 (active), -1 (inactive)

A selection of reference data follows.
Compound: Nc1ccc(C(=O)OCCCOC(=O)c2ccc(N)cc2)cc1
Class Label: -1
--
Compound: CC(O)COC(C)(C)C (stereo not given)
Class Label: -1
--
Compound: CCCCCCC(O)CO (stereo not given)
Class Label: -1

Tell me the assay call for CC1(C)S[C@@H]2[C@H](NC(=O)C(c3ccccc3)S(=O)(=O)O)C(=O)N2[C@H]1C(=O)O (stereo not given in full) please.
-1

Please let me know the test result on file for Clc1cccnc1 .
-1

---

# Assay: Nuclear factor erythroid 2-related factor 2/antioxidant responsive element (Nrf2/ARE) small molecule agonists: qHTS cell viability counter screen in human keratinocytes (AID 1919968); further: nearly all actives have a fitted effect of over 55% in size
# Test Settings: KeratinoSens HaCaT ARE cells viability, CellTiter-Fluor, 24 h; series mostly up to 92.4 µM
# Source text: U.S. Tox21 Program National Center for Advancing Translational Sciences [NCATS] Division of Preclinical Innovation [DPI] U.S. Environmental Protection Agency [EPA] National Institutes of Environmental Health Sciences [NIEHS] National Toxicology Program [NTP] U.S. Food and Drug Administration [FDA] […] The activation of the report gene under culture conditions can be detected by ONE-Glo Luciferase Assay System (Promega, Madison, WI). […]
Inconclusive results are not listed. Activity calls are given as the source filed them. Calls follow the shape of the dose curve; as a rule, active = well fitted cell-killing curve with a large enough effect in the repeat runs; inconclusive = weak or mixed curves, or effect the other way; inactive = flat fitted curve, though single readings scatter.
// allowed return values: active, inactive

Solved cases (5 shown):
Compound: Cc1ccc(O)cn1
Class Label: inactive
//
Compound: CC(CN1CC(=O)NC(=O)C1)N1CC(=O)NC(=O)C1 (stereo unspecified)
Class Label: inactive
//
Compound: CCCCCCCCCCOCC(O)CN (stereo unspecified)
Class Label: active
//
Compound: CCC(CC)(CC(=O)Nc1cccc(/C=C/c2nc(C3CCC3)cs2)c1)C(=O)O
Class Label: inactive
//
Compound: CCCCC(CC)COC(=O)COc1ccc(Cl)cc1C (stereo unspecified)
Class Label: inactive

Recorded call for COc1ccc(CCN(C)CCCC(C#N)(c2cc(OC)c(OC)c(OC)c2)C(C)C)cc1OC (stereo unspecified) ?
inactive

---

# Assayed System: Muscarinic acetylcholine receptor M1 (Homo sapiens) (UniProt P11229)
# Sequence (P11229 whole entry, looked up): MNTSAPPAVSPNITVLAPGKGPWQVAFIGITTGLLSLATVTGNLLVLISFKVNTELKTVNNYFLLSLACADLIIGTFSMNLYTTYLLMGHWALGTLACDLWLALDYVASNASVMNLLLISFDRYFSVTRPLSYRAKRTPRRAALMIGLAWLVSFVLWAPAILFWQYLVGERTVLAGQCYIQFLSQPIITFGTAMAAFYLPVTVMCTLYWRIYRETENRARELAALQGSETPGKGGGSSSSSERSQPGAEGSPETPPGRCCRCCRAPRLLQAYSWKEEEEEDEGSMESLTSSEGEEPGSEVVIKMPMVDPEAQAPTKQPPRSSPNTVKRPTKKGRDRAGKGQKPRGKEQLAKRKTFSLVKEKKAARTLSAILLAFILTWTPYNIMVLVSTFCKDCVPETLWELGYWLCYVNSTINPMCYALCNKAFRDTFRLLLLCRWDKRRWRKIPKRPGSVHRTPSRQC
# Assay: Cholinergic receptor muscarinic 1 (CHRM1) small molecule antagonists, cell-based qHTS assay (AID 1963588); further: nearly all actives have a fitted effect of over 40% in size
# Test Settings: CHRM1-CHO antagonist mode, calcium flux fluorescence; series mostly up to 61.5 µM
Records with an inconclusive call do not appear. Activity calls are given as the source filed them. Calls follow the shape of the full dose curve.
Hello, when you answer, please use one of the following outcomes: 1 = active, 0 = inactive

Recorded results for 5 compounds are shown here.
Compound: CC(=O)N(CC(O)CN(C(C)=O)c1c(I)c(C(=O)NCC(O)CO)c(I)c(C(=O)NCC(O)CO)c1I)c1c(I)c(C(=O)NCC(O)CO)c(I)c(C(=O)NCC(O)CO)c1I (stereo not given)
Class Label: 0
--
Compound: COc1ccc(/C=C/S(=O)(=O)NC(=O)c2ccc(C)cc2Cl)cc1
Class Label: 0
--
Compound: Cc1ccsc1/C=C/C1=NCCCN1C
Class Label: 1
--
Compound: Cc1cccc(C)c1NC(=O)c1cc(S(N)(=O)=O)c(Cl)cc1O
Class Label: 1
--
Compound: O=C(O)CCCc1ccccc1
Class Label: 0

State the result this test recorded for Cc1ccc(N)nc1 .
0

Could you please tell me the result logged for CN1CC(=O)N/C1=N/C(=O)Nc1cccc(Cl)c1 in this assay?
0

Please share the test call associated with CN1Cc2cc(C(=O)N3CCC(C4CCNCC4)CC3)ccc2N[C@@H](CC(=O)O)C1=O .
1

Which outcome was entered for the compound CC(=O)Nc1ccn(C2COC(COC(=O)c3ccccc3)O2)c(=O)n1 (stereo not given) in this test?
0

Which result was noted for this compound in the test: COc1ccc2nc(SCc3ncc(C)c(OC)c3C)[nH]c2c1
0
